Assay: Resazurin reduction viability assay in the neuronal differentiation assay
Type: cell-based, human
Settings: human; differentiation assay, 5 days exposure; > = highest tested concentration; read-out: IC50 general cytotoxicity (resazurin), unspec. EP

molecule | IC50 at 5 days
C=C(C)[C@H]1Cc2c(ccc3c2O[C@@H]2COc4cc(OC)c(OC)cc4[C@@H]2C3=O)O1 [Rotenone] | > 100 nM

---

System: NT2 precursor cells
Assay: cells
Assay type: cell-based, human
Details: Homo sapiens; all three tested endpoints as worded in abstract; read-out: EC 50 ameliorating the inhibitory effects of fipronil on all three tested endpoints (abstract)

structure_string | EC50
CC(=O)N[C@@H](CS)C(=O)O | 84 to 164 µM

// provenance: paper PMC8275550
